Value source: PubChem BioAssay

Tested on: anti-desmoglein-3 scFv antibody binding to human DSG3
procedure_text: blockers of pathogenic pemphigus antibody–desmoglein-3 binding – biochemical, validation compound set, bead-based, flow cytometry, pilot screen (AID 588368);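 note: signal is the median channel fluorescence of bead-bound GFP antibody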
condition_info: Protein G beads, DSG3-Fc, scFv-GFP binding, at 10 µM, hits give low values
Each entry below lists one item and its recorded binding (% of control) value.
Express it in %; write the number only.

{"compound": "O=C(O)CCn1cnc2ccccc2c1=O", "readout_name": "binding (% of control)", "test_value": 101}
{"compound": "O=c1c(C(c2ccccc2)c2c(O)sc3ccccc3c2=O)c(O)sc2ccccc12", "readout_name": "binding (% of control)", "test_value": 107}
{"compound": "CSc1ccc(CN2CCN(CCC(C)C)C(CCO)C2)cc1 (centres undefined)", "readout_name": "binding (% of control)", "test_value": 102}

// sample CC(C)OC(=O)C1C(=O)CC(C)(O)C(C(=O)OC(C)C)C1c1cccc(O)c1 (centres undefined) , its binding (% of control) was 99.8

// sample CC1CCCC(C)N1NC(=O)c1ccc(Cl)c(S(N)(=O)=O)c1 (centres undefined) , its binding (% of control) was 101

// sample COc1ccc(CCN2CNc3c(c(=O)n(C)c(=O)n3C)C2)cc1OC , its binding (% of control) was 99.7

// sample O=C(c1ccco1)N1CCCN(Cc2nc(-c3ccc4c(c3)OCO4)no2)CC1 , its binding (% of control) was 94.7

// sample O=C(O)c1ccc(N2C(=O)/C(=C\c3ccccc3)N=C2c2ccccc2)cc1 , its binding (% of control) was 98.1

// sample COC(=O)c1ccc(C(=O)OC)c(NC(=O)C(C)C)c1 , its binding (% of control) was 97.1

// sample COc1c(C=O)c(CCN(C)C(=O)c2ccc(F)cc2)cc2c1OCO2 , its binding (% of control) was 109

// sample COC(=O)c1ccc2c(c1)C(=O)/C(=C/c1ccc(O)cc1)O2 , its binding (% of control) was 100

// sample CC1(C)C(=O)OC(c2cccs2)C2(CCCCC2)C1=O (centres undefined) , its binding (% of control) was 97.4

// sample COc1ccc(CN2CCC(=O)NC2=O)cc1 , its binding (% of control) was 81.3

// sample c1coc(-c2nnc3n2C2(CCCC2)Cc2ccccc2-3)c1 , its binding (% of control) was 109
